protocolNotes: ACEA_ER_AUC_viability: ACEA Biosciences xCELLigence Real-Time Cell Analysis on Estrogen Receptor Agonism for Viability (AID 2283782);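 note: continuous compound exposure with impedance area under curve over 80 h; hit means loss of impedance signal meaning reduced cell growth or viability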
Results filed as inconclusive are left out. Active and inactive are the calls of the source. Rule for the calls: active = hit-call score of the fitted dose curve at least 0.9, where 1 is the maximum; inconclusive = response in the unintended direction; inactive = score below 0.9.
Hi! Could you answer with just one of these? true (1) = active, false (0) = inactive

[Q] Any idea what this test logged for `O=c1[nH]cccc1O` ?
[A] true (1)

[Q] Entry `FC(F)(F)C(F)(F)C(F)(F)C(F)(F)C(F)(F)C(F)(F)C(F)(F)CCI` : call = ?
[A] false (0)

[Q] Please state the recorded outcome for this compound: `O=C=Nc1cccc2c(N=C=O)cccc12`
[A] false (0)

[Q] Field: outcome | Entry: `Oc1ccc2c(c1)CCC2`
[A] false (0)

[Q] Lab log entry: `O=C(Cl)c1ccc(Cl)cc1Cl` — outcome as called in the assay?
[A] true (1)

[Q] Given `FC(F)(F)C(F)(F)C(F)(F)C(F)(F)C(F)(F)C(F)(F)CC[Si](Cl)(Cl)Cl` , state the outcome it received in this test.
[A] false (0)

[Q] Entry `c1ccc(C[P+](c2ccccc2)(c2ccccc2)c2ccccc2)cc1` : call = ?
[A] true (1)

---

Read-out: Thrombomodulin, THBD (gene 7056)
protocolNotes: BSK_3C_Thrombomodulin: BioMAP Diversity Plus: 3C Assay for Thrombomodulin Biomarker Activity (AID 2283029)
studyConditions: primary human endothelial cells (HUVEC); actives raise or lower the signal
Calls of active or inactive are those of the source. How the source made its calls: active means hit-call score of the fitted dose curve at least 0.9, where 1 is the maximum; inactive means score below 0.9.
Mark one answer only. Choices: active, inactive

Below, 10 compounds whose answers are already recorded.
{"columns": ["compound", "labelClass"],
 "data": [
  ["O=C1C=CC(=O)N1c1ccc(Cc2ccc(N3C(=O)C=CC3=O)cc2)cc1", "active"],
  ["CCN(CC)c1ccc(C=O)c(O)c1", "inactive"],
  ["O=C(O)CCC(F)(F)C(F)(F)C(F)(F)C(F)(F)C(F)(F)C(F)(F)C(F)(F)F", "inactive"],
  ["Cc1cnccn1", "inactive"],
  ["FC(F)(F)C(F)(F)C(F)(F)C(F)(F)C(F)(F)C(F)(F)C(F)(F)CCI", "inactive"],
  ["O=C(O)C(F)(F)C(F)(F)C(F)(F)C(F)(F)C(F)(F)C(F)(F)C(F)F", "inactive"],
  ["OCCCCC(F)(F)C(F)(F)C(F)(F)C(F)(F)F", "inactive"],
  ["CCOC(C=C(C)CCC=C(C)C)OCC", "active"],
  ["OC(O)C(F)(F)C(F)(F)F", "inactive"],
  ["CNS(=O)(=O)C(F)(F)C(F)(F)C(F)(F)C(F)(F)C(F)(F)C(F)(F)C(F)(F)C(F)(F)F", "inactive"]
]}

Here's the next entry for you.
[Q] Identify the outcome logged in this assay for the compound shown: `O=C(Cl)C(F)(F)C(F)(F)C(F)(F)C(F)(F)C(F)(F)C(F)(F)C(F)(F)F`
[A] inactive

---

protocolNotes: ATG_M_06_CIS: Attagene CIS-FACTORIAL HepG2 Assay for M06 Transcription Factor (Internal Marker) (AID 2282950)
studyConditions: HepG2 Attagene CIS-FACTORIAL M06 internal marker reporter; actives raise or lower the signal
Active and inactive are the calls of the source. Rule for the calls: active = hit-call score of the fitted dose curve at least 0.9, where 1 is the maximum; inactive = score below 0.9.
assayMetric: outcome

Some compounds with known outcome results, for comparison:
{"columns": ["compound", "outcome"],
 "data": [
  ["CCCCCCCCCc1ccc(OCCO)cc1", "inactive"],
  ["Cc1cccc(C)n1", "inactive"],
  ["CC(=O)C=O", "inactive"],
  ["Cc1ccc(S(=O)(=O)C(I)I)cc1", "inactive"]
]}

[Q] // query outcome value for entry `CC(C)CC=C(C=O)c1ccccc1`
[A] inactive

[Q] Entry `C[C@]12CC[C@H]3C(=CCc4cc(O)ccc43)[C@@H]1CCC2=O` : reported outcome = ?
[A] inactive

[Q] Query (compound): `OCCCCl` ; field requested: outcome
[A] inactive

[Q] Fill in the blank: the reported outcome of `Cc1cc(=O)[nH]c(C(C)C)n1` is ____.
[A] inactive

[Q] Any idea what its outcome is? The compound is `CCn1c2ccccc2c2ccccc21`
[A] inactive

[Q] I am curious: what outcome value has been reported for `Oc1ccc(C2(c3ccc(O)c(C4CCCCC4)c3)CCCCC2)cc1C1CCCCC1` ?
[A] inactive

[Q] Entry under review: `COc1ccccc1C=O` . Reported outcome?
[A] inactive

[Q] Sample `CCN=c1cc2oc3cc(NCC)c(C)cc3c(-c3ccccc3C(=O)OCC)c-2cc1C` — what was its outcome?
[A] inactive

[Q] Which outcome is reported for this compound? `C[Si](Cl)(Cl)CCC(F)(F)C(F)(F)C(F)(F)C(F)(F)C(F)(F)C(F)(F)F`
[A] inactive

[Q] Which outcome value belongs to `CCCCCCCCCCCCC[N+](C)(C)Cc1ccccc1` ?
[A] inactive

[Q] Look up outcome for this compound: `O=C(O)C(F)(F)C(F)(F)C(F)(F)OC(F)(F)F`
[A] inactive

[Q] Name the recorded outcome for `Nc1c(Br)cc([N+](=O)[O-])cc1Br` .
[A] inactive

[Q] # lookup: outcome of `CCCCCCCCCCCC(=O)Cl`
[A] inactive

[Q] So what's the measured outcome for this one? CCc1cccc(C)c1N(C(=O)C(=O)O)C(C)COC (centres undefined)
[A] inactive

[Q] Find the recorded outcome belonging to `CO[Si](C)(CCC(F)(F)C(F)(F)C(F)(F)C(F)(F)C(F)(F)C(F)(F)F)OC` and report it.
[A] inactive

[Q] Suppose we examine the compound CCC(Cc1c(I)cc(I)c(N)c1I)C(=O)O (centres undefined) ; what outcome value has been reported?
[A] inactive

[Q] Find the recorded outcome belonging to `O=C1OC(=O)c2ccc3c4c(ccc1c24)C(=O)OC3=O` and report it.
[A] inactive

[Q] Look up outcome for this compound: `c1ccc(C[P+](c2ccccc2)(c2ccccc2)c2ccccc2)cc1`
[A] inactive

[Q] Which outcome is listed for CC1=CC2C3C=CC(C3)C2C1C (centres undefined) ?
[A] inactive

[Q] outcome for `FC(F)(F)C(F)(F)C(F)(F)C(F)(F)C(F)(F)C(F)(F)C(F)(F)CCI` ?
[A] inactive

---

protocolNotes: BSK_IMphg_SRB: Viability Assessment in the BioMAP Diversity Plus: IMphg Assay (AID 2284292);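 note: measured one day after compound addition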
studyConditions: primary human endothelial cells with macrophages
Calls of active or inactive are those of the source. Rule for the calls: active = hit-call score of the fitted dose curve at least 0.9, where 1 is the maximum; inactive = score below 0.9.
Just give me one of these, please: yes (active), no (inactive)

Worked examples, 2 molecules total:
{"columns": ["smilesRepr", "labelClass"],
 "data": [
  ["CO[Si](C)(CCC(F)(F)C(F)(F)C(F)(F)C(F)(F)C(F)(F)C(F)(F)F)OC", "no"],
  ["O=S(=O)(O)CCC(F)(F)C(F)(F)C(F)(F)C(F)(F)F", "no"]
]}

[Q] Called result for `CCN(CCO)S(=O)(=O)C(F)(F)C(F)(F)C(F)(F)C(F)(F)C(F)(F)C(F)(F)C(F)(F)C(F)(F)F`
[A] yes

[Q] Check the results log: what was the call for `C=CC(=O)OCCC(F)(F)C(F)(F)C(F)(F)C(F)(F)F` ?
[A] no

[Q] Which outcome was assigned to `NC(=O)C(F)(F)C(F)(F)C(F)(F)C(F)F` in this test?
[A] no

---

Read-out: Urokinase-type plasminogen activator receptor (uPAR), PLAUR (gene 5329)
protocolNotes: BSK_BE3C_uPAR: BioMAP Diversity Plus: BE3C Assay for Urokinase-type plasminogen activator receptor (uPAR) Biomarker Activity (AID 2283039);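 for outcome: uPAR protein level measured by ELISA on the cells; cells exposed to compound for one day before measurement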
studyConditions: primary human bronchial epithelial cells; actives raise or lower the signal
Active and inactive are the calls of the source. The calls were made as follows: active = hit-call score of the fitted dose curve at least 0.9, where 1 is the maximum; inactive = score below 0.9.
Tick one outcome: active, inactive

Use these answered entries as a reference point.
{"columns": ["compound", "labelClass"],
 "data": [
  ["CCN(CC)c1ccc2c(c1)Oc1cc(N(CC)CC)ccc1C21OC(=O)c2ccccc21", "inactive"],
  ["C[C@]12CC[C@H]3C(=CCc4cc(O)ccc43)[C@@H]1CCC2=O", "inactive"],
  ["Cc1cc(C)c(O)c(C(C)(C)C)c1", "active"],
  ["O=C1c2c(O)ccc(Nc3ccc(CCO)cc3)c2C(=O)c2c([N+](=O)[O-])ccc(O)c21", "inactive"],
  ["O=C=Nc1cccc2c(N=C=O)cccc12", "inactive"]
]}

[Q] Can you look up the reported call for `FC(F)(F)C(F)(F)C(F)(F)C(F)(F)C(F)(F)C(F)(F)CC[Si](Cl)(Cl)Cl` for me?
[A] inactive

[Q] Which outcome was assigned to FC(F)(F)C(F)(F)C(F)(F)CC1CO1 (configuration not stated) in this test?
[A] inactive

[Q] Assay result, entry `O=C(F)C1(F)C(F)(F)C(F)(F)C(F)(F)C(F)(F)C1(F)F` — outcome?
[A] inactive

[Q] Per the records of this test, what outcome belongs to `C[Si](Cl)(Cl)CCC(F)(F)C(F)(F)C(F)(F)C(F)(F)C(F)(F)C(F)(F)F` ?
[A] inactive

[Q] I'd appreciate the recorded outcome for `O=C(O)CCC(F)(F)C(F)(F)C(F)(F)C(F)(F)C(F)(F)C(F)(F)C(F)(F)F` from this test.
[A] inactive

[Q] Each compound tested received a call. Report the one for `FC(F)(F)C(F)(F)C(F)(F)C(F)(F)C(F)(F)C(F)(F)C(F)(F)CCI` .
[A] inactive

[Q] Would you mind telling me which call this test gave `CNS(=O)(=O)C(F)(F)C(F)(F)C(F)(F)C(F)(F)C(F)(F)C(F)(F)C(F)(F)C(F)(F)F` ?
[A] inactive

[Q] Call for entry `O=S(=O)(O)CCC(F)(F)C(F)(F)C(F)(F)C(F)(F)F` :
[A] inactive

[Q] Please share the test call associated with `O=S(=O)(O)CCC(F)(F)C(F)(F)C(F)(F)C(F)(F)C(F)(F)C(F)(F)C(F)(F)C(F)(F)F` .
[A] inactive

[Q] Tell me the assay call for `O=C=NCc1cccc(CN=C=O)c1` please.
[A] inactive

[Q] I'd appreciate the recorded outcome for `O=C(O)C(F)(F)C(F)(F)C(F)(F)C(F)(F)C(F)(F)C(F)(F)C(F)F` from this test.
[A] inactive

[Q] Call for entry OCC(O)CC(F)(F)C(F)(F)C(F)(F)C(F)(F)F (configuration not stated) :
[A] inactive

[Q] Hi, do you know how OCC(O)CC(F)(F)C(F)(F)C(F)(F)C(F)(F)C(F)(F)C(F)(F)C(F)(F)C(F)(F)F (configuration not stated) came out in this test?
[A] inactive

[Q] Would you mind telling me which call this test gave `OC(O)C(F)(F)C(F)(F)F` ?
[A] inactive

[Q] Tell me the recorded outcome of this test for `Cc1ccc(S(=O)(=O)C(I)I)cc1` .
[A] active

[Q] What outcome does the record of this test show for CC(C)CCCC(C)CCO (configuration not stated) ?
[A] active

[Q] Give the logged outcome of this assay for the following compound: `CCN(CC)c1ccc(N=Nc2ccccc2)cc1`
[A] inactive
